- assay.target: PPAR delta (Homo sapiens, UniProt Q03181)
- Sequence (Q03181 171-441 limits assumed): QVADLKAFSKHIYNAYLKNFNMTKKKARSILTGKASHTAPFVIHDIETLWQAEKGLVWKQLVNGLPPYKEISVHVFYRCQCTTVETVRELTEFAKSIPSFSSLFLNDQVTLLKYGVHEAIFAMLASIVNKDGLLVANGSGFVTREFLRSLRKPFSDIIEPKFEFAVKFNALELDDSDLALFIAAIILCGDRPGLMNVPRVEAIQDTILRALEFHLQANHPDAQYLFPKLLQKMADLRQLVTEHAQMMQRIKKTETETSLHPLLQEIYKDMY
- experimental.details: Transfection assay for PPAR receptors (PPAR-Gal4 / Gal4-Luciferase reporter in HEK293 cells)
- Assay type: cell-based
- setup.conditions: HEK293 cells co-transfected with PPAR-Gal4 (δ) receptor and Gal4-Luciferase reporter, 24 hours; multiple EC50's = multiple measurements; Table 2
pEC50: −log10 of the molar value.
readout.kind: pEC50

Past entries and their recorded results:
compound="Cc1cc(SCC(C/C=C/C#N)COc2ccc(C(F)(F)F)cc2)ccc1OCC(=O)O (centres unmarked)" quantitative_result=7.70
compound="Cc1cc(SCC(O)/C=C/c2ccc(C(F)(F)F)cc2)ccc1OCC(=O)O (centres unmarked)" quantitative_result=6.84

[1] CCCC(=O)c1ccc(OC(COc2ccc(C(F)(F)F)cc2)CSc2ccc(OCC(=O)O)c(C)c2)cc1 (centres unmarked)
[2] COc1ccc(OC(COc2ccc(C(F)(F)F)cc2)CSc2ccc(OCC(=O)O)c(C)c2)cc1 (centres unmarked)
// query Sorting ascending by pEC50, which comes first: 1 or 2 ? Reply briefly: the label of your chosen item.
// result 2
(2: 7.21, 1: 7.62)

[1] CCC(COc1ccc(C(F)(F)F)cc1)CSc1ccc(OCC(=O)O)cc1 (centres unmarked)
[2] Cc1cc(SCC(C)Oc2ccc(C(F)(F)F)cc2)ccc1OCC(=O)O (centres unmarked)
// query // compare measured pEC50, left 1 , right 2 , return larger Reply briefly: the label of your chosen item.
// result 1
(1: 7.53, 2: 6.68)

[A] CCOC(COc1ccc(C(F)(F)F)cc1)COc1ccc(OCC(=O)O)c(C)c1 (centres unmarked)
[B] Cc1cc(OCC(O)COc2ccc(C(F)(F)F)cc2)ccc1OCC(=O)O (centres unmarked)
// query // compare measured pEC50, left A , right B , return larger Reply briefly: the label of your chosen item.
// result A
